# Test system: kochia
# experiment.description: Test C preemergence
# Assay type: in vivo, Bassia scoparia
# settings: Preemergence, 500 g ai/ha; visual rating after 10 days, 0 to 100 scale (0 no effect, 100 complete control)
The following molecules are shown together with reported Plant response rating, Kochia values.
Just the number, please.

Consider the worked cases shown below.
Kindly note the recorded Plant response rating, Kochia for Cc1cccc2c1O[C@H](C)CN2C(=O)c1cccc(-c2ncn(C(C)C)n2)c1 , which is 0

Kindly note the recorded Plant response rating, Kochia for COc1c(F)cc(-n2cnc(C(C)C)n2)cc1C(=O)N1C[C@H](C)Oc2c(Cl)cccc21 , which is 100

Kindly note the recorded Plant response rating, Kochia for COC[C@H]1CN(C(=O)c2cc(-n3cnc(C4CCC4)n3)ccc2OC)c2cccc(Cl)c2O1 , which is 90

Kindly note the recorded Plant response rating, Kochia for Cc1cc(-n2cnc(C(C)C)n2)cc(C(=O)N2C[C@H](C)Oc3c(Cl)cccc32)c1F , which is 80

Kindly note the recorded Plant response rating, Kochia for Cc1cccc2c1O[C@@H](C)CN2C(=O)c1cc(-n2cnc(C(C)C)n2)cc2ccoc12 , which is 100

Next:
Kindly note the recorded Plant response rating, Kochia for Cc1ccc(-n2cnc(C3(C(F)(F)F)CC3)n2)cc1C(=O)N1C[C@H](C)Oc2c(Cl)cccc21 , which is 100

Kindly note the recorded Plant response rating, Kochia for COc1ccc(-n2cnc(C(C)(C)O)n2)cc1C(=O)N1C[C@H](C)Oc2c(Cl)cccc21 , which is 90

Kindly note the recorded Plant response rating, Kochia for COC[C@H]1CN(C(=O)c2cc(-n3cncn3)ccc2C)c2cccc(Cl)c2O1 , which is 70

Kindly note the recorded Plant response rating, Kochia for CC(C)c1ncn(-c2ccc(SC(F)(F)F)c(C(=O)N3C[C@H](C)Oc4c(Cl)cccc43)c2)n1 , which is 0
